- System: KM12 colon
- assay procedure: NCI tumour cell line growth inhibition, 48 h; in the data active = GI50 below about 0.43 µM; inactive = the rest
Log the outcome using a class from t (active), f (inactive)

Data request: Lab log entry: O=C(c1cccs1)c1c(C(F)(F)F)n([O-])c2ccccc2[n+]1=O — outcome as called in the assay?
Data returned: f

Data request: Assay outcome for N#CC(=C1SCS1)[N+](=O)[O-] : what was it?
Data returned: f

Data request: Would you mind telling me which call this test gave COc1ccc(-c2nn(-c3cccc(Cl)c3)cc2C2CC(c3ccccc3)=NN2C(C)=O)cc1 (stereo not given) ?
Data returned: f

Data request: Hi team, can someone confirm the assay call for CCCCCCCCCC[C@@H](O)[C@H]1CC[C@H]([C@H]2CC[C@H]([C@H](O)CCCCCCCCCC[C@@H]3CC(CC(C)=O)C(=O)O3)O2)O1 (stereo not given in full) ?
Data returned: f

Data request: Which outcome was entered for the compound CCN1CCN(c2nc(NCCCNc3ccnc4cc(Cl)ccc34)c3ccccc3n2)CC1 in this test?
Data returned: f

Data request: Recorded test call requested for C=CC(=O)N[C@H]1C=C(C)c2c(-c3cnc4ccccc4c3)c3c(N)ncnc3n2C1
Data returned: f

Data request: Tell me the assay call for Cc1cc2nc3c4cc(Cl)ccc4n(CCN(C)C)c3nc2cc1C please.
Data returned: f

Data request: Record request — test call for O=C(Nc1nc2ccccc2s1)OCC(F)(F)F
Data returned: f

Data request: Each compound tested received a call. Report the one for COc1cc(/C=C\[N+](=O)[O-])ccc1O .
Data returned: f

Data request: Called result for NC(N)=N/N=C(/c1ccccc1)c1ccc(F)cc1
Data returned: t

Provenance of the data: PubChem BioAssay (NCI)
